Assay: NCI Yeast Anticancer Drug Screen. Data for the mec2-1 strain (AID 157)
Details: S. cerevisiae mec2-1 strain, at 5.0 µM (retest, dose inferred, filed as 0.5)
The panel holds about 79,000 compounds, 15% with a hit somewhere; the sample as a whole holds those more often. The source made the active and inactive calls. Rule as the data show it: active = growth inhibition above about 70%; inactive = the rest.
Pick one and only one: t = active, f = inactive

> print(dat)
                                   compound  assigned.class
1  Cc1ccc(SSc2ccc(C)cc2[N+](=O)[O-])c([N+](=O)[O-])c1               f
2  COc1cc(C(C)(C)C)cc(OC)c1C(O)(c1c(OC)cc(C(C)(C)C)cc1OC)c1c(OC)cc(C(C)(C)C)cc1OC               t
3  O=C(O)NCC1CCCCC1 (tested in a mixture with another compound)               f
4  CN(C)CCNC(=O)c1cccc2nc3c4ccccc4c4ccccc4c3nc12               f
5  O=C1C(C(O)(C(F)(F)F)C(F)(F)F)CCC1C(O)(C(F)(F)F)C(F)(F)F (stereo unspecified)               f
6  Cc1c(N=Nc2ccc(Cl)cc2)c(C)n(C2OC(CO)C(O)C(O)C2O)c(=S)c1C#N (stereo unspecified)               f
7  BrC/C=C/C[P+](c1ccccc1)(c1ccccc1)c1ccccc1               f
8                    CC(C)(C(=O)NN)c1ccccc1               f

Each compound tested received a call. Report the one for CCOC(=O)c1sc2[n+](c1C)C(=O)/C(=C/c1cc(OC)c(OC)c(OC)c1)S2 .
f

Please indicate how the test categorized CN(Cc1cccc2ccccc12)Cc1cccc2ccccc12 .
f

Write down the call the test reported for this compound. Item: CCOC(=O)c1[nH]c2cccc3c2c1CC(Br)C3=O (stereo unspecified)
f

Outcome? CC(=O)CC[N+](C)(C)C
f

What did the test return for O=S(=O)(O)c1ccc2c(N=Nc3c(O)ccc4ccccc34)cccc2c1 ?
f
